# ASSAY_NAME: physchem
# EXPERIMENTAL_CONDITIONS: 40/60 ch3oh/h2o, Solubility, both actives in solvent: Methomyl, with oxamyl, 1:2.5 wt.; 40/60 CH3OH/H2O; -6° C.
READOUT: solubility
Record the result as a number with its unit.

query: What measured solubility goes with CNC(=O)ON=C(C)SC ?
result: 288 mg/mL

---

# ASSAY_NAME: physchem
# EXPERIMENTAL_CONDITIONS: 80/20 ch3oh/h2o, Solubility, Oxamyl alone in solvent, alone; -6° C.
# Procedure: Methomyl and oxamyl were added to various methanol:water solvent systems ranging from 100% CH3 OH to 40% CH3 OH:60% H2 O. The methomyl and oxamyl were dissolved separately or combined on a 1:1 weight ratio in the solvent systems at room temperature at a concentration exceeding the solubility limit at -6° C. Each sample was seeded with methomyl and/or oxamyl at -6° C. and allowed to crystallize until equilibrium was established. […]
READOUT: solubility (mg/mL)
A number alone suffices; assume mg/mL.

query: What measured solubility goes with CNC(=O)ON=C(SC)C(=O)N(C)C ?
result: 447

Cited source: patent US4032654A
